Numbers sourced from patent US20230115176A1.

measured-target: Human C5 (Homo sapiens, UniProt P01031)
Construct: purchased Complement Technology
Sequence (P01031 19-1676): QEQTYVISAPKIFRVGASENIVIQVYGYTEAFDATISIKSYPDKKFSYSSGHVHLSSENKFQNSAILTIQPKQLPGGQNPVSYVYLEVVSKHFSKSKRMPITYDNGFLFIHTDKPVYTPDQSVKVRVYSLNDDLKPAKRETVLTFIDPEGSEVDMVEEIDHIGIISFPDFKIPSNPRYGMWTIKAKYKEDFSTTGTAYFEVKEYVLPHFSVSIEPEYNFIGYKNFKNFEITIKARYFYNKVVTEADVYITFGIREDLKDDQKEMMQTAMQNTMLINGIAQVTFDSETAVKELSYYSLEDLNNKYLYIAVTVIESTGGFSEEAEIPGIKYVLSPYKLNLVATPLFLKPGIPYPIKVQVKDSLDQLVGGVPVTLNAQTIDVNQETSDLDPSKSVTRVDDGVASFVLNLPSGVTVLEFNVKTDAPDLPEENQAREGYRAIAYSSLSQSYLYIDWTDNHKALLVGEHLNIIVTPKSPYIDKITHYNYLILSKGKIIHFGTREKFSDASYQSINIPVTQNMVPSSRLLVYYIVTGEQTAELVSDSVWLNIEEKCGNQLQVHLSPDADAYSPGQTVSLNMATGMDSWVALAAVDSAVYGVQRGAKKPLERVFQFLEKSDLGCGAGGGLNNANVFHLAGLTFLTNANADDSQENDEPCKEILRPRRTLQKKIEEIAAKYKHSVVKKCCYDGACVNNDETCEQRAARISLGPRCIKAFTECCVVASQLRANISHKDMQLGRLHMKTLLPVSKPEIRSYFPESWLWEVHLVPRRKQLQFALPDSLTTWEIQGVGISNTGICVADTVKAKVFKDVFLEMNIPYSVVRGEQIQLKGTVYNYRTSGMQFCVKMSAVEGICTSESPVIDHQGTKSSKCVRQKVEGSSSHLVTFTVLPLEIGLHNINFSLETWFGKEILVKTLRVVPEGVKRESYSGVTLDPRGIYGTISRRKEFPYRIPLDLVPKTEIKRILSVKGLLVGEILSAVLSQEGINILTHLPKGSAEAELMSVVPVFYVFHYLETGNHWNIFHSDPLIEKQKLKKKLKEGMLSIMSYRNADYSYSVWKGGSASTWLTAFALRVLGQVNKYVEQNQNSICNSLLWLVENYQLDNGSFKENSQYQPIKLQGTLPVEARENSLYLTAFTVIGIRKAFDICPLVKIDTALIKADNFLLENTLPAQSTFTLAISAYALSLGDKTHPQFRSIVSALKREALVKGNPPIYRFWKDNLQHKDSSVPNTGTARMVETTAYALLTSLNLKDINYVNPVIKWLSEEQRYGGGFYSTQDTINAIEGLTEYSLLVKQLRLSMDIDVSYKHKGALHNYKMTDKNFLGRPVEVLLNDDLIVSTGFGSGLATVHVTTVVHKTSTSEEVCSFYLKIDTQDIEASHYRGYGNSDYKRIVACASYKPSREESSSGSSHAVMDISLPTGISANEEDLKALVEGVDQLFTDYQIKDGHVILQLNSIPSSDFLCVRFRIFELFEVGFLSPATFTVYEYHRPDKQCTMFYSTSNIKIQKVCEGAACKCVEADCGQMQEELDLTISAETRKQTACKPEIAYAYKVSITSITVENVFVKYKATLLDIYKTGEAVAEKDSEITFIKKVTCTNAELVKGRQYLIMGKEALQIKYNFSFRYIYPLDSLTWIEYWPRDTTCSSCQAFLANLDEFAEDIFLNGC
experimental-details: Hemolysis assay, luminescent, classical complement pathway (Example 4, Table 7)
Type: cell-based
protocol-conditions: sheep EA cells, 1.5% C5-depleted human serum, 0.5 nM human C5, luminescence readout
pIC50: −log10 of the molar value.
Quick rule for you: pIC50 at 7 or higher means label 1, lower means label 0.

[
  {
    "smiles-structure": "CCCCOc1cc(NC(=O)N[C@@H](CO)c2ccccc2)ccc1OC",
    "assigned-label": "label 0"
  },
  {
    "smiles-structure": "CCCCCOc1cc(NC(=O)N(CCC(=O)NCc2ccncc2)Cc2cc(F)ccc2OC)ccc1OC",
    "assigned-label": "label 0"
  },
  {
    "smiles-structure": "COc1ccc(NC(=O)N[C@@H](CO)c2ccccc2)cc1OCCCC(C)C",
    "assigned-label": "label 1"
  },
  {
    "smiles-structure": "CCCCCOc1cc(NC(=O)N2CCC[C@@H]2c2ccccc2Cl)c(CNC(=O)CCl)cc1OC",
    "assigned-label": "label 0"
  }
]

Query: Decide: pIC50 of `CCCCCOc1cc(NC(=O)NCc2ccc(Br)cc2OC)ccc1OC` >= 7?
Reply: label 0

---

experimental-details: Kinetic solubility in PBS pH 7.4, HPLC-UV (Example 21, Table 27)
Assay type: physicochemical
protocol-conditions: phosphate buffered saline, aqueous buffer, kinetic from dmso stock, 0.5 M PBS, shaken minimum 24 h at approximately 25° C., HPLC-UV 270 nm
experimental-endpoint: solubility kinetic

Parameter requested: solubility kinetic. Apply to each item below.
1. CCCCCOc1cc(N2CCCN(Cc3ccnc4c3c(Cl)cn4Cc3nnnn3C)C2=O)ccc1OC
2. CCCCCOc1cc(N2CCCN(Cc3ccnc4c3c(Cl)cn4C3CCOCC3)C2=O)ccc1OC
3. CCCCCOc1cc(N2CCCN(Cc3ccnc4c3c(Cl)cn4CC(=O)NC3COC3)C2=O)ccc1OC

Reply:
1: < 10 µM; 2: < 10 µM; 3: < 10 µM

---

measured-target: UniProtKB P01031
experimental-details: Surface plasmon resonance (SPR), immobilized human C5, 37° C. (Example 12, Table 21)
Type: binding
protocol-conditions: where a range of compound concentrations were analyzed, the lowest value obtained
Please provide measured Kd for the entries that follow.
One number for each entry, in nM.

[
  {
    "compound": "CCCCCOc1cc(N2CCCN(Cc3ccc(CC(=O)N4CCNC(=O)C4)cc3OC)C2=O)ccc1OC [CU0101]",
    "experimental-endpoint": "Kd",
    "endpoint-result": 2.4
  }
]

Parameter requested: Kd. Apply to each item below.
1. CCCCCOc1cc(N2CCN(Cc3ccnc4c3ccn4CC(=O)N(C)C)C2=O)ccc1OC [CU0033]
2. CCCCCOc1cc(N2CCCN(Cc3cccc4c3OCO4)C2=O)ccc1OC [CU0065]
3. CCCCCOc1cc(N2CCCN(Cc3ccc(CCC(=O)N(CC)CC)cc3OC)C2=O)ccc1OC [CU0008]

Reply:
1. 62
2. 370
3. 6.5

---

measured-target: Human C5 (Homo sapiens, UniProt P01031)
Construct: purchased Complement Technology
experimental-details: Red blood cell (RBC) hemolysis assay, luminescent (Example 28, Table 32)
Assay type: cell-based
protocol-conditions: sheep EA cells, 1.5% C5-depleted human serum, 0.5 nM human C5, 1 hour at 37° C., luminescence (Table 32)
Please provide measured IC50 for the entries that follow.
Answers are plain numbers, in nM.

Below, each entry is followed by its recorded IC50 result.
[
  {
    "compound": "COc1cc(CC(=O)N2CCCC2)ccc1CN1CC(C)CN(c2ccc(OC)c(OCCCC3CC3)c2)C1=O (stereo not shown) [SC0191]",
    "IC50 [nM]": 7.3
  },
  {
    "compound": "CCCCCOc1cc(N2CC(CO)CN(Cc3ccc(CNC(C)=O)cc3OC)C2=O)ccc1OC (stereo not shown) [SC0189]",
    "IC50 [nM]": 7
  },
  {
    "compound": "COc1cc(CC(=O)N2CCOC(CN(C)C)C2)ccc1CN1C(=O)N(c2ccc(OC)c(OCCCC3CC3)c2)CC[C@@H]1C (stereo partly shown) [SC0142]",
    "IC50 [nM]": 2.1
  },
  {
    "compound": "COc1ccc(N2CC[C@H](C)N(Cc3cccc4c3ccn4CC(=O)N(C)C)C2=O)cc1OCCCCC1CC1 [SC0203]",
    "IC50 [nM]": 10.2
  },
  {
    "compound": "CCCCCOc1cc(N2CC(C)CN(Cc3ccc(CC(=O)N4CCNC(=O)C4)cc3OC)C2=O)ccc1OC (stereo not shown) [SC0163]",
    "IC50 [nM]": 2.8
  },
  {
    "compound": "COc1cc(CC(=O)N[C@H]2CNC[C@H]2F)ccc1CN1C(=O)N(c2ccc(OC)c(OCCCC3CC3)c2)CC[C@@H]1C [SC0152]",
    "IC50 [nM]": 2.3
  },
  {
    "compound": "COc1cc(CC(=O)N[C@H]2CCN(C(=O)OC(C)(C)C)C2)ccc1CN1C(=O)N(c2ccc(OC)c(OCCCC3CC3)c2)CC[C@@H]1C [SC0216]",
    "IC50 [nM]": 19.6
  },
  {
    "compound": "CCCCCOc1cc(N2CC[C@H](C)N(Cc3cccc4c3c(Cl)cn4CC3=NCCN3C)C2=O)ccc1OC [SC0169]",
    "IC50 [nM]": 3.5
  }
]

Parameter requested: IC50. Apply to each item below.
1. CCCCCOc1cc(N2C[C@H](C)CN(Cc3ccc(CC(=O)N(C)C)cc3OC)C2=O)ccc1OC [SC0209]
2. COc1cc(CC(=O)N2CC[C@@H](N(C)C)C2)ccc1CN1C(=O)N(c2ccc(OC)c(OCCCC3CC3)c2)CC[C@@H]1C [SC0140]
3. CCCCCOc1cc(N2CC(COCc3ccccc3)CN(Cc3ccc(CC(=O)O)cc3OC)C2=O)ccc1OC (stereo not shown) [SC0229]
4. CCN1CC[C@H](NC(=O)Cc2ccc(CN3C(=O)N(c4ccc(OC)c(OCCCC5CC5)c4)CC[C@@H]3C)c(OC)c2)C1 [SC0141]

Reply:
12.6
2.1
371
2.1

Parameter requested: IC50. Apply to each item below.
1. COc1cc(CC(=O)N[C@@H]2CN(C(=O)OC(C)(C)C)C[C@@H]2F)ccc1CN1C(=O)N(c2ccc(OC)c(OCCCC3CC3)c2)CC[C@@H]1C [SC0185]
2. CCCCCOc1cc(N2C[C@H](C(N)=O)CN(Cc3cc(F)ccc3OC)C2=O)ccc1OC [SC0215]
3. COc1ccc(N2CC[C@H](C)N(Cc3cccc4c3c(Cl)cn4CC(=O)N3CCOCC3)C2=O)cc1OCCCC1CC1 [SC0115]
4. CCCCCOc1cc(N2CC[C@@H](C)N(Cc3cccc4c3ccn4CC(=O)OCC)C2=O)ccc1OC [SC0211]

Reply:
1: 5.7; 2: 18.6; 3: 1.4; 4: 15.6

Parameter requested: IC50. Apply to each item below.
1. COc1cc(CC(=O)N(C)[C@H]2CCN(C(=O)OC(C)(C)C)C2)ccc1CN1C(=O)N(c2ccc(OC)c(OCCCC3CC3)c2)CC[C@@H]1C [SC0188]
2. CCCCCOc1cc(N2CC[C@H](C)N(Cc3cccc4c3ccn4CC(=O)N3CCO[C@@H](CN(C)C)C3)C2=O)ccc1OC [SC0171]
3. CCCCCOc1cc(N2CC(C)CN(Cc3ccc(CNC(=O)c4cocn4)cc3OC)C2=O)ccc1OC (stereo not shown) [SC0170]

Reply:
1: 6.4; 2: 3.7; 3: 3.7

Parameter requested: IC50. Apply to each item below.
1. CCCCCOc1cc(N2CC[C@H](C)N(Cc3cccc4c3c(C)cn4CC(=O)N(C)C)C2=O)ccc1OC [SC0107]
2. CCCCCOc1cc(N2CC[C@H](C)N(Cc3ccnc4c3c(Cl)cn4CC(=O)N[C@H]3CCNC3)C2=O)ccc1OC [SC0143]
3. COc1cc(Cc2ncccn2)ccc1CN1C(=O)N(c2ccc(OC)c(OCCCC3CC3)c2)CC[C@@H]1C [SC0157]

Reply:
1. 1.1
2. 2.1
3. 2.6

---

experimental-details: Kinetic solubility in PBS pH 7.4, HPLC-UV (Example 21, Table 27)
Type: physicochemical
protocol-conditions: phosphate buffered saline, aqueous buffer, kinetic from dmso stock, 0.5 M PBS, shaken minimum 24 h at approximately 25° C., HPLC-UV 270 nm
Please provide measured solubility kinetic for the entries that follow.
Numbers only, in µM.

[
  {
    "smiles-structure": "CCCCCOc1cc(N2CCCN(Cc3ccc(CN)cc3OC)C2=O)ccc1OC",
    "solubility kinetic [µM]": 389
  }
]

Parameter requested: solubility kinetic. Apply to each item below.
1. COc1cc(CC(=O)N2CCNC(=O)C2)ccc1CN1CCCN(c2ccc(OC)c(OCCCC3CC3)c2)C1=O
2. CCCCCOc1cc(N2CCCN(Cc3ccnc4c3c(Cl)cn4CC(=O)N(C)C)C2=O)ccc1OC
3. CCCCCOc1cc(N2CC[C@H](C)N(Cc3cccc4c3ccn4CC(=O)N3CCO[C@H](COC)C3)C2=O)ccc1OC

Reply:
1: 480; 2: 31; 3: 111
